Exercise: state measured Selectivity Index (SI) T. brucei for each of the compounds provided.
System: T. brucei BSF
Assay: Antitrypanosomal activity, alamarBlue assay
Type: cell-based, Trypanosoma brucei
Conditions: SI = IC50 MRC-5/IC50 parasite
Numbers only.

Past entries and their recorded results:
CC1=CC(C)=[N+]2C1=C(c1ccc3ccccc3n1)c1c(C)cc(C)n1[B-]2(F)F; 1.24
CC1=CC(C)=[N+]2C1=C(c1ccccc1)c1c(C)cc(C)n1[B-]2(F)F; 1.76
CC1=C(I)C(C)=[N+]2C1=C(c1c3ccccc3cc3ccccc13)c1c(C)c(I)c(C)n1[B-]2(F)F; 1.72
CC1=C(C=O)C(C)=[N+]2C1=C(c1ccccc1)c1c(C)cc(C)n1[B-]2(F)F; 1.22
CCn1c2ccccc2c2cc(C3=C4C(C)=C(C=O)C(C)=[N+]4[B-](F)(F)n4c(C)cc(C)c43)ccc21; 5.89

Report Selectivity Index (SI) T. brucei for each item below.
1. CC1=CC(C)=[N+]2C1=C(c1ccc(N(c3ccccc3)c3ccccc3)cc1)c1c(C)cc(C)n1[B-]2(F)F
2. CC1=CC(C)=[N+]2C1=C(c1cc3sccc3s1)c1c(C)cc(C)n1[B-]2(F)F
3. CC1=C(C=O)C(C)=[N+]2C1=C(c1ccc(N(c3ccccc3)c3ccc(C=O)cc3)cc1)c1c(C)cc(C)n1[B-]2(F)F
4. CCn1c2ccccc2c2cc(C3=C4C(C)=CC(C)=[N+]4[B-](F)(F)n4c(C)cc(C)c43)ccc21
5. CC1=CC(C)=[N+]2C1=C(c1cccs1)c1c(C)cc(C)n1[B-]2(F)F
6. CC1=CC(C)=[N+]2C1=C(c1ccc(N(C)C)c3ccccc13)c1c(C)cc(C)n1[B-]2(F)F

Result:
[1.87, 1.58, 2.28, 4.77, 1.57, 4.21]
